# Test details: protein stability index of a GFP-peptide fusion (GPS, HEK-293T) (PSI 1-6); higher = more stable;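 also: 24-mer peptide tiles fused after GFP, lentivirally expressed, FACS-sorted into six equal bins by GFP/DsRed ratio, decoded by Illumina sequencing, PSI is the read-weighted mean bin number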
# Condition description: treatment: MLN4924 1 uM, 8 h; c terminus: a fixed tail appended
Recorded protein stability index by entry
# print the numeric value only

Seq string: QSIQQAMRYLRNHCLDQVGLFRKS [DLC1]
protein stability index: 2.26
--
Seq string: VSNTYVKQKTSAALSTMGTLICRK [TPD52L3]
protein stability index: 2.98
--
Seq string: KSPQFNRYFYLLENIAWVKSYNIC [PDS5B]
protein stability index: 2.27
--
Seq string: SEAKADKILAEAAKLVPMGFTTAT [RAD51]
protein stability index: 3.93

Tell me protein stability index reported for MAMYWGTSRWSSMEIMEAYSVARQ [KCNAB2] 2.06

----------
// values below are reported protein stability index
# Test details: protein stability index of a GFP-peptide fusion (GPS, HEK-293T) (PSI 1-6); higher = more stable
# Condition description: treatment: MLN4924 1 uM, 8 h; c terminus: a fixed tail appended
A bare number is all that is needed in reply.

Sample records with protein stability index:
Seq string: MAESLRSPRRSLYKLVGSPPWKEA [RPAIN]
protein stability index: 2.77
//
Seq string: CFPRLDINVSKGINHLLKSPFSVH [PRIM1]
protein stability index: 2.05
//
Seq string: MKLFLDCLKEFPEKQELHRNMLGL [ZER1]
protein stability index: 2.4
//
Seq string: GLSSSSARFLSRSIPSLQSEYVHY [CDC14A]
protein stability index: 3.02
//
Seq string: ICSLICLLIYTVKIRRFNKAKPEP [TMEM192]
protein stability index: 2.44

Please give the documented protein stability index of LSWELLDSHLGGNARGMGIRSPRP [CTBP1-DT] 3.18

Indicate its recorded protein stability index; the sequence in question is SSSRPISPGLSYASHTVGFTPPTS [CCDC6] 3.74

Consider the sequence GRWVNENCRLQSPYFSPSASFHHK [CBY2] and give its recorded protein stability index. 2.86

State its protein stability index for this sequence: HAVSTCHFCVDDTKLLSGSYDCTV [WDR88] 2.44

----------
# Test details: protein stability index of a GFP-peptide fusion (GPS, HEK-293T) (PSI 1-6); higher = more stable
# Condition description: treatment: MLN4924 1 uM, 8 h; c terminus: a fixed tail appended
Cut-off 3 on protein stability index, inclusive. At or above means criterion met; below means criterion not met.

Seq string: QLHKPLAEGTPRSNHSAQDSAVEN [IKZF1]
Discrete label: criterion met
//
Seq string: SASHYKLQVIKALKSSGLCESLTY [M1AP]
Discrete label: criterion not met

Dear colleague, could you confirm whether RSRIEALELLGASFANDRENYDII [FEM1B] has protein stability index at or above 3? criterion met

Item QEELNRKAEELDRRERELQHAALG [SCAMP3] with protein stability index of 3 or above? criterion met

// inclusive: protein stability index at least 3? input: IWAKTPPITRKAAQLYTLWVTFQV [DHCR7] criterion not met

Determine whether this sequence has protein stability index no lower than 3: LGTAIFIEADRRRAQLHVQGLLHE [SPNS1] criterion not met

Quick check: does VLGSQDALPIATAFTEYVHAYFRG [FCHO1] have protein stability index greater than or equal to 3? criterion not met

# bool: protein stability index of KQLLNSAVIAQQRRKPDPPKDENE [DLC1] >= 3 criterion met

Is protein stability index at least 3? Consider ENPDLQEAYIAKQKRLKSKLLDHD [GDAP1] criterion met

Determine whether this sequence has protein stability index no lower than 3: GFLQALSLAVDKQFEERKKLAAYI [TRIP13] criterion not met

Determine whether this sequence has protein stability index no lower than 3: AAGVAAAFGAPIGGTLFSLEEGSS [CLCN6] criterion met

State whether the measured protein stability index reaches 3, counting equality as reaching it, for LLEDPLCADVILVLQERVRIFAHK [RHOBTB2] criterion not met

Is the recorded value of protein stability index equal to or greater than 3 for this sequence? LSGVDLELVGSGYRMSLVKRRFAT [FCHO1] criterion not met

Could you please find out whether TNRVKECLAKGTFSDVTFILDDGT [RHOBTB2] has protein stability index that meets 3 or exceeds it? criterion met

# check: protein stability index of AALIEAIQDRLSNTLQTYIRCRHP [VDR] is greater than or equal to 3 criterion not met

Has PYMNPSPFTVSPNTHVSQVFNLFR [CLCN6] a recorded protein stability index greater than or equal to 3? criterion not met

protein stability index >= 3 for IRSMDPSALASDRFNLILADTNSD [DCAF4] ? criterion met

I'd appreciate it if you could say whether TINIKCHVHDPHGQVIWGMSWAKL [FBXO39] has protein stability index at least equal to 3. criterion not met

----------
# Test details: protein stability index of a GFP-peptide fusion (GPS, HEK-293T) (PSI 1-6); higher = more stable
# Condition description: treatment: DMSO; c terminus: a fixed tail appended
Quantity: protein stability index
API doc: respond with a numeric literal and nothing else, no unit.

Supply protein stability index value. Item: RGLLEYFKAYIKIYQGEDLPHPKS [ATL3] 3.18

Quick one: give measured protein stability index for VLGSQDALPIATAFTEYVHAYFRG [FCHO1] 2.51

Give protein stability index for the following sequence: VSNTYVKQKTSAALSTMGTLICRK [TPD52L3] 3.41

State its protein stability index for this sequence: NGSVGVKNSMENGRPPDPADWAVM [SAMD13] 3.99

Give me measured protein stability index, please, for this sequence: AFQAFTNDLLEILEIDDLDAIVPA [CEP70] 2.73

Give protein stability index for ERTYSANCSDFLESKGCFANTTPS [SPATS1] 3.67

Provide one value: measured protein stability index of NCFEITLELSCDKFPPEEELQREW [CPN1] 2.77

Kindly indicate its recorded protein stability index. Item: LAFRSGSDNLLVILKRKWWKYILL [SLC35F2] 2.58

Quote protein stability index reported for IRKLVAEKLNIPWNHIRLQRTAKG [AASDHPPT] please. 2.31

Tell me protein stability index reported for RNGHLATVKLLVEEKADVLARGPL [RIPK4] 3.1

----------
# Test details: protein stability index of a GFP-peptide fusion (GPS, HEK-293T) (PSI 1-6); higher = more stable
# Condition description: treatment: DMSO; c terminus: a fixed tail appended
Quantity: protein stability index
Answer with a bare number; do not write a unit.

Below, 6 sequences whose answers are already recorded.
Seq string: CDECGKHFSQGSALILHQRIHSGE [ZNF24]
Value observed: 5.16

Seq string: PAFLKWLSLASLLVYVAAFSIGLG [SLC2A12]
Value observed: 3.28

Seq string: EKLSRGLRYYYDKNIIHKTSGKRY [ETS2]
Value observed: 2.74

Seq string: QPHLPLLSTLAGIRVMVHGRNHTP [SCNN1D]
Value observed: 2.52

Seq string: KCIFTQFRIILGDFDYNAIDNANR [PKD2L1]
Value observed: 2.41

Seq string: GGGDISVKELGTVMRMLGQTPTKE [TNNC2]
Value observed: 4.04

Return protein stability index (reported value) for this sequence: HTHRAHTVVPLDDATQEYKEKLQK [TRIM39] 5.39

For the sequence GDVPPSMSGSCAVCVDRVLYLFGG [KLHDC2] , report protein stability index. 2.74

For EFHPHHCNTFVYSSSKGTIRLCDM [PPP2R2B] , write its protein stability index. 2.31

Determine its reported protein stability index: IHGLPTEGYQALYHAVVEPMLWNP [C22orf31] 2.19

Please look at this sequence and report its protein stability index: AYVAEREDELSLVKGSRVTVMEKC [NCK2] 4.31

----------
# Test details: protein stability index of a GFP-peptide fusion (GPS, HEK-293T) (PSI 1-6); higher = more stable
# Condition description: treatment: MLN4924 1 uM, 8 h; c terminus: a fixed tail appended
As shown below, each of these sequences has a reported protein stability index value.
Lab note: jot the number down without any unit.

Seq string: ADGRIEPGDMLLQVNEINFENMSN [DVL3]
protein stability index: 4.36

Seq string: SAGIAKLEEGDELQLAIPRENAQI [TNFSF13B]
protein stability index: 4.97

Seq string: VLISNHVTPFDHNIVNLLTTCSTP [AUP1]
protein stability index: 2.48

Seq string: GRLSMAAADIVNFLTVGSVLQMWH [ZBTB22]
protein stability index: 3.4

Seq string: ASSRASENQSPSSSNYFSPRESTD [ZBTB22]
protein stability index: 5.17

We next turn to a different sequence, shown below.
Note down protein stability index recorded for RNHGILMETHKELKPLLSPSSETT [LYSMD4] 4.62
